target: ROCK2 (Homo sapiens (Human)); assay: ROCK2 kinase assay (IMAP fluorescence polarization); assay type: biochemical; settings: 1 μM ATP; read-out: ROCK2 Average Ki
Sequence (O75116 whole entry): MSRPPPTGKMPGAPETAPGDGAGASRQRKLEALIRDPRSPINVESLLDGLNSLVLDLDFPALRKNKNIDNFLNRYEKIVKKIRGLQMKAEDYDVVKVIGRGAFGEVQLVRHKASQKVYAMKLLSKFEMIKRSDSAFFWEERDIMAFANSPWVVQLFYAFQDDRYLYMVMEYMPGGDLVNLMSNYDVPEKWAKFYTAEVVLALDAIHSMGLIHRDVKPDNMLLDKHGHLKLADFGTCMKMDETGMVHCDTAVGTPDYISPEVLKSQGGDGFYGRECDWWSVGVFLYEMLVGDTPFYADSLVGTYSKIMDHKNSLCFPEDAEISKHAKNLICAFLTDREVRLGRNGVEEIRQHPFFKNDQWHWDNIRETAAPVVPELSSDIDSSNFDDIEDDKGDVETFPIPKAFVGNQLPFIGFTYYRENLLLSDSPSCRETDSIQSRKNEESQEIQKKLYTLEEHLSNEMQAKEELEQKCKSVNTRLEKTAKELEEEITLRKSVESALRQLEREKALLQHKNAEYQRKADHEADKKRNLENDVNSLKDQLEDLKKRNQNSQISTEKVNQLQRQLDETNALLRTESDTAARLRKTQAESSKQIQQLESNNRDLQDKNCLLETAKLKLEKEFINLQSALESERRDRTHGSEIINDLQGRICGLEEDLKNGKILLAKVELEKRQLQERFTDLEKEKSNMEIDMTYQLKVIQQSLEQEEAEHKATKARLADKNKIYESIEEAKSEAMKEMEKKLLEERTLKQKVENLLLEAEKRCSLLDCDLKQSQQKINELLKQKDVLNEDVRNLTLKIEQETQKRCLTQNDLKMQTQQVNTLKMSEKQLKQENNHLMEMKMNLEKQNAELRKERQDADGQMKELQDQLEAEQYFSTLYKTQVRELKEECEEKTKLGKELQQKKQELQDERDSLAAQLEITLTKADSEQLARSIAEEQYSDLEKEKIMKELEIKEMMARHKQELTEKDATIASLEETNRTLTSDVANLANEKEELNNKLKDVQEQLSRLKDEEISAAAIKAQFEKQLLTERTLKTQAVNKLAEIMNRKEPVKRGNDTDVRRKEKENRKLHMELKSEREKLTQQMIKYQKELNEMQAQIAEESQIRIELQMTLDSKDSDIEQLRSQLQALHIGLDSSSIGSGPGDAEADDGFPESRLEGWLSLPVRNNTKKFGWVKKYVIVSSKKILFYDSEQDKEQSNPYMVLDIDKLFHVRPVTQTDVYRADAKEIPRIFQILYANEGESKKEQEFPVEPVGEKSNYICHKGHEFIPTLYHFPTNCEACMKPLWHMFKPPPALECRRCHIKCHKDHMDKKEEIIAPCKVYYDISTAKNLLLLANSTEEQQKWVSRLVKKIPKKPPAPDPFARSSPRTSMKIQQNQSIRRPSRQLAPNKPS
Catalogue of compounds with associated Ki
# value in nM; strip the unit string

Worked examples follow.
Request: Kindly indicate its recorded Ki. Item: Cn1ccc(-c2c[nH]c3nccc(N4CCCCC4)c23)n1 [Example E22]
Result: 3220

Request: Read the entry CN[C@H]1CCCN(c2ccnc3[nH]cc(-c4cccnc4)c23)C1 [Example E53] and write its reported Ki.
Result: 335

Request: Supply reported Ki belonging to this compound: c1ncc(-c2c[nH]c3nccc(N4CCCC5(CCCN5)C4)c23)cn1 (centres unmarked) [Example E195]
Result: 174

Request: Please report the measured Ki for c1cnc(-c2c[nH]c3nccc(N4CCCC5(CCCCN5)C4)c23)cn1 (centres unmarked) [Example E189]
Result: 167

Further cases:
Request: Return Ki (reported value) for this compound: CN[C@H]1CCCN(c2ccnc3[nH]cc(-c4cnn(C)c4)c23)C1 [Example E55]
Result: 129

----------
System: kinase targets listed in tables 3 and 4 (Homo sapiens, UniProt Q13464) | Read-out: pIC50
Sequence (Q13464 2-1354 limits assumed): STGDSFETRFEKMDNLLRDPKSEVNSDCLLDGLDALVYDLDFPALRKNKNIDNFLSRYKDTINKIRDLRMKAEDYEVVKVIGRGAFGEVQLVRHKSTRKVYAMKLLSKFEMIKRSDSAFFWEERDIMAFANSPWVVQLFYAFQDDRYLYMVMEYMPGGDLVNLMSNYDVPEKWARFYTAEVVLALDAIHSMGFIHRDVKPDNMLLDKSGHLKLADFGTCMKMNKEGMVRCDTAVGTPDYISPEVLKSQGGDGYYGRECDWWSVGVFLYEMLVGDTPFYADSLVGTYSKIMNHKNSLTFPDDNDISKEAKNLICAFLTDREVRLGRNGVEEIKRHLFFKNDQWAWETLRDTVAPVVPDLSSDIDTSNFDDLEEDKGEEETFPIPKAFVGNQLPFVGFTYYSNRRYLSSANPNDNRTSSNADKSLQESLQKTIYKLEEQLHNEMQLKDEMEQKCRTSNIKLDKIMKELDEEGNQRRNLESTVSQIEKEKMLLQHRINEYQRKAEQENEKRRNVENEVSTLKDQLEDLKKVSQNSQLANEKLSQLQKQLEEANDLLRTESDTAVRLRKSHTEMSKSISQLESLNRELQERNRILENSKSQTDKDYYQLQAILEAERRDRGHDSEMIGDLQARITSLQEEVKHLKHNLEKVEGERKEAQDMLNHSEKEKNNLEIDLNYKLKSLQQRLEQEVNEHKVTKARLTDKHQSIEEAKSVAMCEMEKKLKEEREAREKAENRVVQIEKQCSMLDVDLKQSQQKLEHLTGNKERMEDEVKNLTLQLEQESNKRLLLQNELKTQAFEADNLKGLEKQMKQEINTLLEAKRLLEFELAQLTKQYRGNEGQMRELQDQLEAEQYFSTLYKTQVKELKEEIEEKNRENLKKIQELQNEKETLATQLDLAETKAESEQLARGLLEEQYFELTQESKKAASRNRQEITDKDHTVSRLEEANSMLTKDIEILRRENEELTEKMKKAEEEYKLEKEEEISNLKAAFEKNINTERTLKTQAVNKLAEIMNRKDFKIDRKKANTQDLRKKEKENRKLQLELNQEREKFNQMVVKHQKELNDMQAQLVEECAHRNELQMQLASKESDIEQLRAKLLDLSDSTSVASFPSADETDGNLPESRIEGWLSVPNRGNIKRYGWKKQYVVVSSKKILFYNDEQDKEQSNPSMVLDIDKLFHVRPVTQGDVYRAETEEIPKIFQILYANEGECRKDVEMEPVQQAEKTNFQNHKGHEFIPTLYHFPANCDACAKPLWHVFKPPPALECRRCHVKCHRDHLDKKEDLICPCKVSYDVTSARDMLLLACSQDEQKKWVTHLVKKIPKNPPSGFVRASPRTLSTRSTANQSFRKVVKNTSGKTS
By convention, pIC50 is the negative base-10 log of a molar concentration.

Request: Specify the recorded pIC50 for c1cc(-c2c[nH]c3nccc(N4CCC[C@@]5(CCCCN5)C4)c23)ncn1 [Example E117] , system: kinase targets listed in tables 3 and 4 (Homo sapiens, UniProt Q13464).
Result: 6.85

# next compound below
Request: Please respond with reported pIC50 (system kinase targets listed in tables 3 and 4 (Homo sapiens, UniProt Q13464)) for c1csc(-c2c[nH]c3nccc(N4CCC[C@@]5(CCCCN5)C4)c23)n1 [Example E150] .
Result: 6.39

----------
biological target: MRCKα (Homo sapiens (Human)); assay: MRCKα kinase assay (IMAP fluorescence polarization); type: biochemical; conditions: 1 μM ATP; read-out: MRCK-a Average Ki
Sequence (Q5VT25 whole entry): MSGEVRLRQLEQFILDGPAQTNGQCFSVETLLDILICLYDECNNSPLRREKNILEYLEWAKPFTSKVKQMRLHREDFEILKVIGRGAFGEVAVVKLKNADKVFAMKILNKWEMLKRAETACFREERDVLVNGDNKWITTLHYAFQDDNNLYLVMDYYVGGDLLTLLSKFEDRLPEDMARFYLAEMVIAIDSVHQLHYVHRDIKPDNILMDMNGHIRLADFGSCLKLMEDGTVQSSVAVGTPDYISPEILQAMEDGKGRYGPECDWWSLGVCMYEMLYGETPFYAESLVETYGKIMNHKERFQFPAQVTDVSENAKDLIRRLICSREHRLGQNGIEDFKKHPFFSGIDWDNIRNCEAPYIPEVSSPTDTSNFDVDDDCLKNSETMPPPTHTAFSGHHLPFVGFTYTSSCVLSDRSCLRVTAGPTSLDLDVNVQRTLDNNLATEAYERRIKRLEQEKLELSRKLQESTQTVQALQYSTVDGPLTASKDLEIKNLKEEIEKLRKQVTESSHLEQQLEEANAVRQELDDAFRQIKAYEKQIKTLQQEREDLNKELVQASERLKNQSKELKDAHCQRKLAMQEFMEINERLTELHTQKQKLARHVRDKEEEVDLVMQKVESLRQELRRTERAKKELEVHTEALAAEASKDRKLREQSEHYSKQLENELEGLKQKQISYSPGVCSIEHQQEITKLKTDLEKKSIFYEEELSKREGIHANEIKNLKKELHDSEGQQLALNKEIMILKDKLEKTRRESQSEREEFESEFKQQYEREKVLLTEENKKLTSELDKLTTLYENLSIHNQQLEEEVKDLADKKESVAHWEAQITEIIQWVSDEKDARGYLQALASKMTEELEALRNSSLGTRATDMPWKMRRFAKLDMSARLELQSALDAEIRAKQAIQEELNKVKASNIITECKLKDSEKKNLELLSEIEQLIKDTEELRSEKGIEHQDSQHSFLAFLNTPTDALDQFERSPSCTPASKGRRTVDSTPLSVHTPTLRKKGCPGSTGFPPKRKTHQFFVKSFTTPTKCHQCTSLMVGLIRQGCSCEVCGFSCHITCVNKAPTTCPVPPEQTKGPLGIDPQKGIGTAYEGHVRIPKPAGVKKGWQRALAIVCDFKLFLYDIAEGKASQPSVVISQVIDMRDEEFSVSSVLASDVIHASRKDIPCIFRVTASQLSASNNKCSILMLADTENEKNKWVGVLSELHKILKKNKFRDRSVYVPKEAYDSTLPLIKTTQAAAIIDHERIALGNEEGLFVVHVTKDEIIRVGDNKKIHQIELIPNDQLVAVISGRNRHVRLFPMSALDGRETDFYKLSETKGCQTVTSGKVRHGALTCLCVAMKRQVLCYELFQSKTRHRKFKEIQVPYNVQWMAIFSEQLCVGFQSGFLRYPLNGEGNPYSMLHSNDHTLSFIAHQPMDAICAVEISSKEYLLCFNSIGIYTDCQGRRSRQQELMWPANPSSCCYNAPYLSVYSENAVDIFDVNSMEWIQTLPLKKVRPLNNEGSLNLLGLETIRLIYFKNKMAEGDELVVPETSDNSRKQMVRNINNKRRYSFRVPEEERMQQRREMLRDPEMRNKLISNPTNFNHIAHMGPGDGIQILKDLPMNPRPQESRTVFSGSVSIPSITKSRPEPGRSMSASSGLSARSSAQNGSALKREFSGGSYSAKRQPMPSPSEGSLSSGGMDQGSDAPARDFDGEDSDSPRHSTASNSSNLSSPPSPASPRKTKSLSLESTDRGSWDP
pKi for assorted molecules
Scale: negative log10 of molar concentration, which is what pKi denotes.

Field: example entries. Status: answers known.
Request: Note pKi for the molecule shown: OC1CCN([C@H]2CCCN(c3ccnc4[nH]cc(-c5cncnc5)c34)C2)C1 (some centres unmarked) [Example E93]
Result: 7.94

Request: Quote pKi reported for c1ncc(-c2c[nH]c3nccc(N4CCC5(CCCNC5)CC4)c23)cn1 [Example E193] please.
Result: 9.66

Request: Given c1ncc(-c2c[nH]c3nccc(N[C@H]4CCCNC4)c23)cn1 [Example E87] , respond with its pKi.
Result: 7.47

More entries:
Request: Note down pKi recorded for c1cc(N2CCC[C@@]3(CCCCN3)C2)c2c(-c3ccsn3)c[nH]c2n1 [Example E120]
Result: 11.31

Request: Determine from records and report pKi for c1ncc(-c2c[nH]c3nccc(N4CC[C@@]5(CCCCN5)C4)c23)cn1 [Example E126]
Result: 10.38

----------
target: UniProt O75116; assay: ROCK2 kinase assay (IMAP fluorescence polarization); format: biochemical; conditions: 1 μM ATP; read-out: ROCK2 Average Ki
Definition: the class of an entry is the range in b0: < 0.2 µM; b1: ≥ 0.2 µM and < 0.4 µM; b2: ≥ 0.4 µM that contains its Ki.

Field: example entries. Status: answers known.
Request: Which class holds OC1CCN([C@H]2CCCN(c3ccnc4[nH]cc(-c5cncnc5)c34)C2)C1 (stereo partly shown) [Example E93] ?
Result: b2

Request: Returns: class label. Input: c1cnnc(-c2c[nH]c3nccc(N4CCCC5(CCCCN5)C4)c23)c1 (stereo not shown) [Example E175]
Result: b2

Request: Which of the defined bands does the recorded Ki of c1cc(N2CCC[C@@]3(CCCCN3)C2)c2c(-c3ncsn3)c[nH]c2n1 [Example E116] sit within?
Result: b0

Others:
Request: Looking at N#Cc1cncc(-c2c[nH]c3nccc(N4CCCCC4)c23)c1 [Example E8] , which class would you pick?
Result: b2

Request: Please classify: c1ncc(-c2c[nH]c3nccc(N4CCCCC4)c23)cn1 [Example E20]
Result: b2

Request: Please classify: c1ccc(-c2c[nH]c3nccc(N4CCC[C@@]5(CCCCN5)C4)c23)nc1 [Example E139]
Result: b0

----------
molecular target: MRCKβ (Homo sapiens (Human)); test: MRCKβ cellular assay (pMLC T18/S19 immunoblot, MDA-MB-231 cells with doxycycline inducible kinase domain); type: cell-based; settings: MDA-MB-231 cells, doxycycline inducible kinase domain, 60 minutes, pMLC (T18/S19); read-out: Cellular assay - MRCK-b inhibition MEAN
Parameter pIC50: see the listing below.
Please express pIC50 as -log10 of the molar concentration.

Request: Note pIC50 for the compound shown: CN[C@H]1CCCN(c2ccnc3[nH]cc(-c4ccncn4)c23)C1
Result: 5.75

Request: Retrieve pIC50 measured for c1cc(-c2c[nH]c3nccc(N4CCC[C@@]5(CCCCN5)C4)c23)cnn1 and print it.
Result: 7.29

Request: Tell me its pIC50 given c1cc(-c2c[nH]c3nccc(N4CC[C@@]5(CCCCN5)C4)c23)ncn1 as the entry.
Result: 6.38

Request: Give a short answer stating reported pIC50 for Fc1ccc(-c2c[nH]c3nccc(N4CCCC5(CCCCN5)C4)c23)nc1 (stereo not shown) .
Result: 6.21

Request: Give the measured pIC50 for CC1(N)CCCN(c2ccnc3[nH]cc(-c4nccs4)c23)C1 (stereo not shown)
Result: 6.59

Request: Please report pIC50 for the following compound: Fc1cncc(-c2c[nH]c3nccc(N4CCCC5(CCCCN5)C4)c23)c1 (stereo not shown)
Result: 6.63

Next:
Request: Using known records, supply pIC50 for c1cc(N2CCC[C@@]3(CCCCN3)C2)c2c(-c3ncsn3)c[nH]c2n1
Result: 6.85

Request: Please indicate pIC50 recorded for CCN1CCCC[C@@]12CCCN(c1ccnc3[nH]cc(-c4ccncn4)c13)C2
Result: 6.77

Request: Using known records, supply pIC50 for c1ncc(-c2c[nH]c3nccc(N4CC[C@@]5(CCCCN5)C4)c23)cn1
Result: 5.90

----------
target: ROCK1 (Homo sapiens (Human), UniProt Q13464); details: read-out: ROCK1 Average Ki; 1 μM ATP
Reported Ki is given for each of the following compounds.
Record the value in nM, omitting the unit from your answer.

Request: State its Ki for this compound: CN[C@H]1CCCN(c2ccnc3[nH]cc(-c4cnc(C)nc4)c23)C1
Result: 21700

Request: For the compound c1cc(-c2c[nH]c3nccc(N4CC[C@]5(CCCCN5)C4)c23)ncn1 , give its reported Ki.
Result: 175

Request: Retrieve Ki measured for Cn1nccc1-c1c[nH]c2nccc(N3CCCCC3)c12 and print it.
Result: 10000

Request: For the compound Cc1[nH]ncc1-c1c[nH]c2nccc(N3CCC[C@H](N)C3)c12 , report Ki.
Result: 93.2

Request: Identify Ki associated with the compound c1ncc(-c2c[nH]c3nccc(NC4CCNCC4)c23)cn1
Result: 109

More entries:
Request: # return recorded Ki for input CN1CCCN(c2ccnc3[nH]cc(C#N)c23)CC1
Result: 24.3

Request: Find the measured Ki of CCN[C@H]1CCCN(c2ccnc3[nH]cc(-c4ccnnc4)c23)C1 and report it.
Result: 152

Request: Indicate the recorded Ki value for this compound: N[C@H]1CCN(c2ccnc3[nH]cc(-c4cncnc4)c23)C1
Result: 158

Request: Specify measured Ki for N#Cc1c[nH]c2nccc(N3CCCC3Cc3ccccc3)c12 (stereo not shown) .
Result: 1880

Request: Return the recorded Ki value; entry: OCCN[C@H]1CCCN(c2ccnc3[nH]cc(-c4cncnc4)c23)C1
Result: 1390

Request: Please look at this compound and report its Ki: c1cnc(-c2c[nH]c3nccc(N4CCCCC4)c23)cn1
Result: 504

Request: Tell us which Ki value is on record for c1ncc(-c2c[nH]c3nccc(N4CCC5(CCNC5)CC4)c23)cn1
Result: 9.3

Request: Quick one: give measured Ki for Cn1cc(-c2c[nH]c3nccc(N4CCCC5(CCCCN5)C4)c23)cn1 (stereo not shown)
Result: 93.6

Request: Find the measured Ki of NC1CCN(c2ccnc3[nH]cc(-c4cncnc4)c23)CC1 and report it.
Result: 128

----------
List of pIC50 values.
target: ROCK1 (Homo sapiens (Human), UniProt Q13464); assay: ROCK1 cellular assay (pMLC T18/S19 immunoblot, MDA-MB-231 cells with doxycycline inducible kinase domain); type: cell-based; details: MDA-MB-231 cells, doxycycline inducible kinase domain, 60 minutes, pMLC (T18/S19); read-out: Cellular assay - ROCK1 inhibition MEAN
pIC50: −log10 of the molar value.

Request: Return the recorded pIC50 value; entry: Cc1cnc(-c2c[nH]c3nccc(N4CC[C@@]5(CCCCN5)C4)c23)s1
Result: < 4.52

Request: Report pIC50 for c1ccc(-c2c[nH]c3nccc(N4CCC[C@@]5(CCCCN5)C4)c23)nc1
Result: < 4.52

Request: Could you please provide reported pIC50 for c1cc(N2CCCC3(CCCCN3)C2)c2c(-c3ncsn3)c[nH]c2n1 (stereo not drawn) ? Thanks!
Result: < 4.52

Request: Note down pIC50 recorded for c1cc(N2CCC[C@@]3(CCCCN3)C2)c2c(-c3ccsn3)c[nH]c2n1
Result: 4.81

Request: Annotate the compound c1cc(-c2c[nH]c3nccc(N4CCC[C@@]5(CCCCN5)C4)c23)ncn1 with its measured pIC50.
Result: 4.97

Others:
Request: Specify reported pIC50 for the compound shown: c1csc(-c2c[nH]c3nccc(O[C@@H]4CCCNC4)c23)n1
Result: 4.84

Request: Give a short answer stating reported pIC50 for CCN1CCCCC12CCCN(c1ccnc3[nH]cc(-c4nccs4)c13)C2 (stereo not drawn) .
Result: < 4.52

Request: Give pIC50 for the following compound: CN1CCCC[C@@]12CCCN(c1ccnc3[nH]cc(-c4ccncn4)c13)C2
Result: < 4.52

Request: State, in one line, measured pIC50 of c1ncc(-c2c[nH]c3nccc(N4CC[C@@]5(CCCCN5)C4)c23)cn1
Result: < 4.52
